Where these numbers come from: patent US20120165331A1

SYSTEM_TESTED: human orexin 1 receptor (Homo sapiens)
PROTOCOL_DESCRIPTION: Calcium accumulation in cells (FLIPR), antagonism of orexin A, human orexin 1 receptor
MEASUREMENT_CONTEXT: calcium accumulation, antagonism of orexin A, Cheng-Prusoff corrected; read-out: FLIPR hOx1R Ki
Can you tell me pKi for the items I'm about to list?
Please treat pKi as minus the base-10 logarithm of the molar concentration.

Prompt line: Field request: pKi | item: Cc1csc(N2CCC3(CCN(Cc4c[nH]c5ccccc45)C3=O)C2)n1 (centres unmarked) [Example 5.37]
Response line: 5.44

Prompt line: Field request: pKi | item: Cc1cn2ccnc(N3CCC4(CCN(Cc5c[nH]c6ccccc56)C4=O)C3)c2n1 (centres unmarked) [Example 5.40]
Response line: 5.76

Prompt line: Field request: pKi | item: Cc1cc(C)nc(N2CCC3(CC2)NCCN(Cc2nn(C)cc2-c2cccc(C(F)(F)F)c2)C3=O)n1 [Example 1.41]
Response line: 5.80

Prompt line: Field request: pKi | item: Cc1cc(C)nc(N2CCC3(CC2)NCCN(Cc2nn(C)nc2-c2cccc(N4CCOCC4)c2)C3=O)n1 [Example 1.77]
Response line: 5.54

Prompt line: Field request: pKi | item: COc1cc(C)nc(N2CCC3(CCN(Cc4n[nH]c5ccccc45)C3=O)CC2)n1 [Example 3.21]
Response line: 6.00

Prompt line: Field request: pKi | item: O=C1N(Cc2c[nH]c3ccccc23)CCC12CCN(c1nc3ccccc3o1)CC2 [Example 3.13]
Response line: 6.47

Prompt line: Field request: pKi | item: O=C1N(Cc2c[nH]c3ccccc23)CCCC12CCN(c1nc3ccccc3o1)C2 (centres unmarked) [Example 7.8]
Response line: 7.01

Prompt line: Field request: pKi | item: COc1nc(C)cc(N2CCC3(CC2)NCCN(Cc2c[nH]c4ccccc24)C3=O)n1 [Example 1.66]
Response line: 5.41

* * *

SYSTEM_TESTED: human orexin 1 receptor (Homo sapiens, UniProt O43613)
Construct: expressed in transfected cells
Sequence (O43613 1-425): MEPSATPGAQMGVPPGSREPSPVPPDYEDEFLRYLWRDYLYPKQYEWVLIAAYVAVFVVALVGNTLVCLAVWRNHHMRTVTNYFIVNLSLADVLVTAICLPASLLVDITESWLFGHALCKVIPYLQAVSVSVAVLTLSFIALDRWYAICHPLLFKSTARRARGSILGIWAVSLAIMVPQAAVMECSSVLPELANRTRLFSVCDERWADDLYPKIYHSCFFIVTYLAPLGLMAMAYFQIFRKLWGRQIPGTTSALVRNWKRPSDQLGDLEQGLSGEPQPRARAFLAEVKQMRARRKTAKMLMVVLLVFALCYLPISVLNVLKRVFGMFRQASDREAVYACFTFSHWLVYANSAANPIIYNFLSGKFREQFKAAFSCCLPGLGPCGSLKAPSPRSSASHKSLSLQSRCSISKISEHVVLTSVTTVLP
PROTOCOL_DESCRIPTION: Radioligand binding assay ([3H]-SB649868 competition), human orexin 1 receptor
MEASUREMENT_CONTEXT: radioligand [3H]-SB649868; read-out: Binding hOx1R Kd
ENDPOINT_NAME: pKd
Please treat pKd as minus the base-10 logarithm of the molar concentration.

Prompt line: Field request: pKd | item: COc1ccc2[nH]nc(CN3CCNC4(CCN(c5nc(C)cc(C)n5)CC4)C3=O)c2c1 [Example 1.56]
Response line: 6.31

Prompt line: Field request: pKd | item: CCc1cc(C)nc(N2CCC3(CC2)OCCN(Cc2c[nH]c4ccccc24)C3=O)n1 [Example 2.23]
Response line: 5.80

Prompt line: Field request: pKd | item: COc1cccc(-c2ocnc2CN2CCNC3(CCN(c4nc(C)cc(OC)n4)CC3)C2=O)c1 [Example 1.13]
Response line: 7.09

Prompt line: Field request: pKd | item: Cc1ccnc(N2CCC3(CC2)OCCN(Cc2c[nH]c4ccccc24)C3=O)n1 [Example 2.8]
Response line: 5.25

Prompt line: Field request: pKd | item: Cc1cc(C)nc(N2CCC3(CC2)OCCN(Cc2n[nH]c4ccccc24)C3=O)n1 [Example 2.2]
Response line: 5.74

Prompt line: Field request: pKd | item: COCc1cccc(-c2ocnc2CN2CCNC3(CCN(c4nc(C)cc(C)n4)CC3)C2=O)c1 [Example 1.27]
Response line: 5.29

Prompt line: Field request: pKd | item: O=C1N(Cc2c[nH]c3ccccc23)CCCC12CCN(c1nc3ccccc3[nH]1)C2 (centres unmarked) [Example 7.15]
Response line: 7.37

Prompt line: Field request: pKd | item: Cc1ccc(C)c(CN2C(=O)CCC23CCN(c2nc(C)cc(C)n2)CC3)c1 [Example 8.6]
Response line: 5.31

Prompt line: Field request: pKd | item: COc1cc(C)nc(N2CCC3(CC2)NCCN(Cc2c[nH]c4ccccc24)C3=O)n1 [Example 1.8]
Response line: 6.17

Prompt line: Field request: pKd | item: COc1cccc(-c2n[nH]nc2CN2CCNC3(CCN(c4nc(C)cc(C)n4)CC3)C2=O)c1 [Example 1.39]
Response line: 6.64

Prompt line: Field request: pKd | item: COc1cccc(-c2ocnc2CN2CCNC3(CCN(c4nccc(C)n4)CC3)C2=O)c1 [Example 1.10]
Response line: 5.40

Prompt line: Field request: pKd | item: Cc1cc(C)nc(N2CCC3(CC2)OCCN(Cc2ccccc2-c2nc(C)no2)C3=O)n1 [Example 2.10]
Response line: 5.34

Prompt line: Field request: pKd | item: COc1cccc(-c2oc(C)nc2CN2CCNC3(CCN(c4nc(C)cc(OC)n4)CC3)C2=O)c1 [Example 1.18]
Response line: 6.66

Prompt line: Field request: pKd | item: COc1cc(C)nc(N2CCC3(CCCN(Cc4n[nH]c5ccccc45)C3=O)C2)n1 (centres unmarked) [Example 7.12]
Response line: 6.76

Prompt line: Field request: pKd | item: COc1cncc(-c2cn(C)nc2CN2CCNC3(CCN(c4nc(C)cc(C)n4)CC3)C2=O)c1 [Example 1.55]
Response line: 5.23

Prompt line: Field request: pKd | item: CCC(=O)c1cccc(-c2cn(C)nc2CN2CCNC3(CCN(c4nc(C)cc(C)n4)CC3)C2=O)c1 [Example 1.70]
Response line: 6.33

Prompt line: Field request: pKd | item: Cc1cc(C)nc(N2CCC3(CC2)OCCN(Cc2nn(C)cc2-c2ccccc2)C3=O)n1 [Example 2.11]
Response line: 5.50

Prompt line: Field request: pKd | item: COc1ccc2[nH]cc(CN3CCOC4(CCN(c5nc(C)cc(C)n5)CC4)C3=O)c2c1 [Example 2.7]
Response line: 6.67

Prompt line: Field request: pKd | item: COc1cc(C)nc(N2CC[C@@]3(CCCN(Cc4c[nH]c5ccccc45)C3=O)C2)n1 (single isomer, unassigned) [Example 7.10]
Response line: 6.12

Prompt line: Field request: pKd | item: COc1cc(C)nc(N2CCC3(CCN(Cc4ccccc4-c4nc(C)no4)C3=O)CC2)n1 [Example 3.20]
Response line: 5.12

Prompt line: Field request: pKd | item: COc1cccc(-c2n[nH]nc2CN2CCCC3(CCN(c4nccc(OC)n4)C3)C2=O)c1 (centres unmarked) [Example 7.6]
Response line: 6.73

Prompt line: Field request: pKd | item: Cc1ccnc(N2CCC3(CCCN(Cc4c[nH]c5ccccc45)C3=O)C2)n1 (centres unmarked) [Example 7.11]
Response line: 7.05

Prompt line: Field request: pKd | item: COc1cc(C)nc(N2CCC3(CCN(Cc4nn(C)nc4-c4ccccc4)C3=O)C2)n1 (centres unmarked) [Example 5.43]
Response line: 6.47

Prompt line: Field request: pKd | item: Cc1cc(C)nc(N2CCC3(CC2)NCCN(Cc2nn(C)cc2-c2cccc(OC4CC4)c2)C3=O)n1 [Example 1.62]
Response line: 6.85

Prompt line: Field request: pKd | item: Cc1cc(C)nc(N2CCC3(CC2)NCCN(Cc2nn(C)cc2-c2cccc(OC(C)C)c2)C3=O)n1 [Example 1.47]
Response line: 6.73

Prompt line: Field request: pKd | item: COc1cccc(-c2sc(C)nc2CN2CCNC3(CCN(c4nc(C)cc(OC)n4)CC3)C2=O)c1 [Example 1.26]
Response line: 6.45

Prompt line: Field request: pKd | item: COc1cc(-c2nn(C)nc2CN2CCNC3(CCN(c4nc(C)cc(C)n4)CC3)C2=O)ccn1 [Example 1.74]
Response line: 5.60

Prompt line: Field request: pKd | item: COc1cccc(-c2ocnc2CN2CCNC3(CCN(c4nccc(OC)n4)CC3)C2=O)c1 [Example 1.12]
Response line: 6.16

Prompt line: Field request: pKd | item: COc1ccnc(N2CCC3(CCCN(Cc4c[nH]c5ccccc45)C3=O)C2)n1 (centres unmarked) [Example 7.4]
Response line: 6.70

Prompt line: Field request: pKd | item: Cc1cc(C)nc(N2CCC3(CC2)NCCN(Cc2nn(C)cc2-c2cccc(OCC(C)C)c2)C3=O)n1 [Example 1.53]
Response line: 6.50

Prompt line: Field request: pKd | item: O=C1COCC2(CCN(c3cnc4ccccc4n3)CC2)N1Cc1cccc2[nH]ccc12 [Example 8.9]
Response line: 6.37

Prompt line: Field request: pKd | item: Cc1cc(C)nc(N2CCC3(CC2)NCCN(Cc2nn(C)cc2-c2cccc(OCCOC(C)C)c2)C3=O)n1 [Example 1.72]
Response line: 6.07
